studySystem: T1, biotinylated GITR (human, UniProt Q9Y5U5 26-161, limits assumed, biotinylated (sites not given))
T1 construct: also called GITR-bio; Biotin-GITR
T1 sequence: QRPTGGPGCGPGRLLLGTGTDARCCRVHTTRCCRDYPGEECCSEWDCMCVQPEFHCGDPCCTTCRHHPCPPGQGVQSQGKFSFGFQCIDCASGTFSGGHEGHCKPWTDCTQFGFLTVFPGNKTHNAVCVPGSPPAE
testMethodNotes: BLI (Octet), biotin-GITR on streptavidin tips, antibody supernatant
experimentalEndpoint: kon (M⁻¹ s⁻¹)
# unit: M⁻¹ s⁻¹ | format: bare number

Example entries begin here.
Qu. Indicate the recorded kon value for this binder: germline variant antibody 4 (H1916A05 / K1916A05) (antibody, V domains shown, IGHG1/IGKC expression vectors; measured from CHO culture supernatant; also called Antibody ID 4) VH: QVQLVQSGAEVKKPGASVKVSCKASGYTFTEYAMYWVRQAPGQSLEWMGLIRTFSGDVSYNQKFQDRVTMTVDKSISTAYMELSRLRSDDTAVYYCAKSGTVRGFAYWGQGTLVTVSS VL: DIVMTQSPDSLAVSLGERATINCKSSQSLLNSSNQKNYLSWYHQKPGQPPKLLIYWASTRESGVPDRFTGSGSGTDFTLTISSVQAEDVAVYYCQNDYSYPYTFGQGTKLEIK
Ans. 351000

Qu. Identify kon associated with the binder germline variant antibody 2 (H1916A03 / K1916A03) (antibody, V domains shown, IGHG1/IGKC expression vectors; measured from CHO culture supernatant; also called Antibody ID 2) VH: QVQLVQSGAEVKKPGASVKVSCKASGYTFTEYAMHWVRQAPGQGMEWIGLIRTYSGGVSYNQKFRGRATMTVDKSISTAYMELSRLRSDDTAVYYCAKSGTVRGFAYWGQGTLVTVSS VL: DIVMTQSPDSLAVSLGERATINCKSSQSLLNSGNQKNYLSWYHQKPGQPPKLLIYWASTRESGVPDRFSGSGSGTDFTLTISSVQAEDVAVYYCQNEYSFPYTFGQGTKLEIK
Ans. 553000

Qu. Look up and state reported kon for germline variant antibody 70 (H1917B04 / K1917B04) (antibody, V domains shown, IGHG1/IGKC expression vectors; measured from CHO culture supernatant; also called Antibody ID 70) VH: QVQLVQSGTEVKKPGASVKVSCKASGYTFTGYAMYWVRQAPGQGMEWIGVIRTYSGDVTYNQKFKDRATMTVDTSISTAYMELSRLRSDDTAVYYCAKSGTVRGFAYWGQGTLVTVSS VL: DIVMTQSPDSLAVSLGERATINCKSSQSLLNSGNQKNYLSWYQQKPGQPPKLLIYWASTRESGVPDRFSGSGSGTDFTLTISSLQAEDVAVYHCQNDYSFPYTFGQGTKLEIK
Ans. 437000

Qu. Query kon for germline variant antibody 71 (H1917B07 / K1917B07) (antibody, V domains shown, IGHG1/IGKC expression vectors; measured from CHO culture supernatant; also called Antibody ID 71) VH: QVQLVQSGAEVKKPGASVKVSCKASGYTFTGYAMYWVRQAPGQGMEWMGVIRTFSGGVTYNQKFRGRATMTVDTSISTAYMELSRLRSDDTAVYYCAKSGTVRGFAYWGQGTLVTVSS VL: DIVMTQSPDSLAVSLGERATINCKSSQSLLNSSNQKNYLTWYQQKPGQPPKLLIYWASTRESGVPDRFTGSGSGTDFTLTISSVQAEDVAVYHCQNDYSYPYTFGQGTKLEIK
Ans. 1.05e+06

Now consider the entry below.
Qu. State its kon: germline variant antibody 75 (H1917C09 / K1917C09) (antibody, V domains shown, IGHG1/IGKC expression vectors; measured from CHO culture supernatant; also called Antibody ID 75) VH: QVQLVQSGTEVKKPGASVKVSCKGSGYTFTGYAMYWVRQAPGQGLEWIGVIRTYSGGVTYNQKFQGRVTMTVDKSISTAYMELSRLRSDDTAVYYCAKSGTVRGFAYWGQGTLVTVSS VL: DIVMTQSPDSLAVSLGERATINCKSSQSLLNSGNQKNYLSWYHQKPGQPPKLLIYWASTRESGVPDRFTGSGSGTDFTLTISSLQAEDVAVYYCQNDYSYPYTFGQGTKLEIK
Ans. 317000
